TARGET OR SYSTEM: 2-C-methyl-D-erythritol 2,4-cyclodiphosphate synthase (Burkholderia pseudomallei (strain K96243), UniProt Q63T71)
Sequence (Q63T71 whole entry): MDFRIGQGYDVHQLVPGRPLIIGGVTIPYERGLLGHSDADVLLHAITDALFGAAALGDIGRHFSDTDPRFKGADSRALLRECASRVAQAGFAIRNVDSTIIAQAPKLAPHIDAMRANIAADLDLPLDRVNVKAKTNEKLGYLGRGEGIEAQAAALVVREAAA
ASSAY SUMMARY: Binding affinity to Burkholderia pseudomallei IspF at pH 7.4 measured by isothermal titration calorimetry method
MEASUREMENT PARAMETERS: read-out: Kd(app)
Let's look at some molecules and their measured Kd.
# output: bare number, implied unit µM

[
  {
    "SMILES STRING": "N[C@H](Cc1c[nH]c2ccccc12)C(=O)NO",
    "READOUT KIND": "Kd",
    "UNIT": "µM",
    "VALUE REPORTED": 64
  }
]

Then this molecule:
In plain terms, N[C@@H](Cc1c[nH]c2ccccc12)C(=O)NO has a documented Kd of 36

###

TARGET OR SYSTEM: 2-C-methyl-D-erythritol 2,4-cyclodiphosphate synthase (Escherichia coli (strain K12), UniProt P62617)
Sequence (P62617 whole entry): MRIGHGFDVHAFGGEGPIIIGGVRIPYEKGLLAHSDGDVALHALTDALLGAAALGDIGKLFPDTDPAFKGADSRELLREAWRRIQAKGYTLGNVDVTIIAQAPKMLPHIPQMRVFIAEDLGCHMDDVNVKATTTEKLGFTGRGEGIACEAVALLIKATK
ASSAY SUMMARY: Binding affinity to Escherichia coli IspF at pH 7.4 measured by isothermal titration calorimetry method
MEASUREMENT PARAMETERS: read-out: Kd(app)
READOUT KIND: Kd (µM)
Lab book: enter the figure in µM, no units written.

// Kd value for N[C@@H](Cc1c[nH]c2ccccc12)C(=O)NO : 22

###

TARGET OR SYSTEM: 2-C-methyl-D-erythritol 2,4-cyclodiphosphate synthase (Burkholderia pseudomallei (strain K96243))
ASSAY SUMMARY: Binding affinity to Burkholderia pseudomallei IspF at pH 8 measured by isothermal titration calorimetry method
MEASUREMENT PARAMETERS: read-out: Kd(app)
READOUT KIND: Kd (µM)
Supply the numeric figure in µM, leaving out any unit text.

Recorded Kd (compound N[C@@H](Cc1c[nH]c2ccccc12)C(=O)NO ): 24

Values were extracted from ChEMBL document CHEMBL4808218.
